Biological target: T1, Recombinant human IL-18 (human, UniProt Q14116 37-193)
T1 sequence: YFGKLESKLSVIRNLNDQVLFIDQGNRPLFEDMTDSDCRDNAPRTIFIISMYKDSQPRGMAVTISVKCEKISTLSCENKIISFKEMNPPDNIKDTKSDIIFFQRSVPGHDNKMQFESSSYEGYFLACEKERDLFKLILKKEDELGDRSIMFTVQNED
Test: cell-based or functional assay
resultType: IC50, inhibition of IFN-γ release, human whole blood, recombinant human IL-18 (7 nM)
Don't forget the unit after the number, please.

# count of solved cases: 2
binder	recordedValue
MOR13361 (antibody, human IgG1, kappa, L234A L235A, V domains shown) VH: QVQLLESGGGLVQPGGSLRLSCAASGFTFSSYAIHWVRQAPGKGLEWVSTIQSSGENKFYADSVKGRFTISRDNSKNTLYLQMNSLRAEDTAVYYCARVMIGYGFDYWGQGTLVTVSS VL: DIQMTQSPSSLSASVGDRVTITCRASQSIFNYLNWYQQKPGKAPKLLIYDSSTLQSGVPSRFSGSGSGTDFTLTISSLQPEDFATYYCHQYSGLLFTFGQGTKVEIKR	15.7 nM
MOR09466 (antibody, human IgG1, lambda, L234A L235A, V domains shown, also called MOR9466) VH: EVQLVQSGAEVKKPGSSVKVSCKASGGTFNSYAISWVRQAPGQGLEWMGNIIPYSGFAYYAQKFQGRVTITADESTSTAYMELSSLRSEDTAVYYCARAAYHPLVFDNWGQGTLVTVSS VL: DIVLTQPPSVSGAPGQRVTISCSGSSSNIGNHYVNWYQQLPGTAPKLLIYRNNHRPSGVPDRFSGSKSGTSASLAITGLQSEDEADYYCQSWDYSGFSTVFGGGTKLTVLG	5.6 nM

We next turn to a different binder, shown below.
Ask: Quick check: IC50, inhibition of IFN-γ release, human whole blood, recombinant human IL-18 (7 nM) of MOR9464_N30K (antibody, human IgG1, lambda, L234A L235A, V domains shown, also called MOR09464_N30K) VH: EVQLVQSGAEVKKPGSSVKVSCKASGGTFKSYAISWVRQAPGQGLEWMGNIIPMTGQTYYAQKFQGRVTITADESTSTAYMELSSLRSEDTAVYYCARAAYHPLVFDNWGQGTLVTVSS VL: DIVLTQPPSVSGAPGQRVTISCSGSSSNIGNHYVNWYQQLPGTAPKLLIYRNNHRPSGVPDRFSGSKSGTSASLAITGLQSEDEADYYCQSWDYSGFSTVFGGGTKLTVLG ?
Reply: 8.62 nM
